Quick list: Percent Effect per entry.
Tested on: Leishmania donovani
Experiment: Leishmania intramacrophage assay
Type: functional, organism-based
Parameters: scale not given: in the data most compounds retested in dose-response had high values
Conditions: 30.3 µM; […]
Among all 69,000 compounds or so, about 1,000 (1.4%) showed an effect of 50% or more. Many of the other results were omitted from the sample, so strong results are more common in it than they were.
All answers are understood in %, so give the number only.

Would you please look over these solved cases?
| molecule | assayed-system | Percent Effect / % |
| --- | --- | --- |
| CC(C)CN1C[C@H]2CCN(C(=O)NC3CCCC3)CC[C@H]2S1(=O)=O | Leishmania donovani | 5.795 |
| Cc1cc2c(c(-c3cncc(C(=O)N4CCCC4)n3)c1)OC(CN)C2 (configuration not stated) | Leishmania donovani | 74.06 |
| Cc1noc(C)c1CN1CCO[C@H]2CN(Cc3ccc(F)cc3)C[C@H]21.O=C(O)C(F)(F)F.O=C(O)C(F)(F)F | Leishmania donovani | 23.07 |
| CN1CCN(C)c2cc(NC(=O)c3cc[nH]n3)ccc2C1 | Leishmania donovani | 24.5 |
| CCOc1ccc(Cl)c(C(=O)NC(C(N)=O)c2ccccc2)n1 (configuration not stated) | Leishmania donovani | 28.97 |

Query (molecule): `CC(=O)N1CCC2(CCN(Cc3cccc(F)c3)CC2)CC1.O=C(O)C(F)(F)F` ; field requested: Percent Effect
20
